system: PHF21A; experiment: Histone peptide microarray; assay type: binding, human; settings: PHF21A, GST-tagged; arrays performed twice, n of 4
Where no end group is shown, it is not given here. [ ]: non-standard residue; d: D form. Arg(Me2a) = CN(C)C(=N)NCCC[C@H](N)C(=O)O; pS = N[C@@H](COP(=O)(O)O)C(=O)O
Quantity name: Array Heatmap value (peptide array binding signal)

Myc-Tag: 1-10 (ILKKATAYIL; Myc epitope tag; UniProt P01106 410-419, looked up, fragment)    0.4264
H2AS1p + K5ac: H2A 1-17 ([pS]GRGK(Ac)QGGKARAKAKTR; UniProt P0C0S8 2-18, looked up, fragment)    0.3599
H2A.Z K4ac + K8ac + K12ac (1-19) (N-ac): H2AZ 1-19 (Ac-AGGKAGKDSGKAKTKAVSR; not fully specified (residue 4); UniProt P0C0S5 2-20, looked up, fragment)    0.5429
H2AX (S139p): H2AX 132-142 (GKKATQA[pS]QEY; UniProt P16104 133-143, looked up, fragment)    0.4613
H2A.Z (1-19) (N-ac): H2AZ 1-19 (Ac-AGGKAGKDSGKAKTKAVSR; UniProt P0C0S5 2-20, looked up, fragment)    0.4295
H2AR3me2a + K5ac: H2A 1-17 (SG[Arg(Me2a)]GK(Ac)QGGKARAKAKTR; UniProt P0C0S8 2-18, looked up, fragment)    0.4417
H4K12ac + KQ5,8,16,20: H4 1-23 (SGRGQGGQGLGK(Ac)GGAQRHRQVLR; UniProt P62805 2-24, looked up, variant K5Q K8Q K16Q K20Q)    0.4355

* * *

System: TAF3
Test: Histone peptide microarray
Format: binding, human
Details: TAF3, GST-tagged; arrays performed twice, n of 4
Source text: To more comprehensively define the histone interactions of the 31 PHD readers identified from the domain microarray analyses, we probed each on an alternate microarray platform containing a library of 293 synthetic histone peptides with single or combinatorial PTMs (Additional file 2: Figure S4 and Additional file 3: Table S2). The 31 GST-tagged PHD readers identified in the PHD finger domain array were expressed and purified as previously. […]
Where no end group is shown, it is not given here. [ ]: non-standard residue; d: D form. pS = N[C@@H](COP(=O)(O)O)C(=O)O
Quantity name: Array Heatmap value (peptide array binding signal)

H2A.Z K4ac + K8ac + K12ac (1-19) (N-ac): H2AZ 1-19 (Ac-AGGKAGKDSGKAKTKAVSR; not fully specified (residue 4); UniProt P0C0S5 2-20, looked up, fragment)    0.3233
H2AX (S139p): H2AX 132-142 (GKKATQA[pS]QEY; UniProt P16104 133-143, looked up, fragment)    0.2793
H2AX (132-142): H2AX 132-142 (GKKATQASQEY; UniProt P16104 133-143, looked up, fragment)    0.2878
H4K12ac + KQ5,8,16,20: H4 1-23 (SGRGQGGQGLGK(Ac)GGAQRHRQVLR; UniProt P62805 2-24, looked up, variant K5Q K8Q K16Q K20Q)    0.2598

* * *

test system: PHF23; experiment: Histone peptide microarray; type: binding, human; conditions: PHF23, GST-tagged; arrays performed twice, n of 4
Where no end group is shown, it is not given here. [ ]: non-standard residue; d: D form. Arg(Me2a) = CN(C)C(=N)NCCC[C@H](N)C(=O)O; pS = N[C@@H](COP(=O)(O)O)C(=O)O
Quantity name: Array Heatmap value (peptide array binding signal)

H2AS1p + R3me2a + K5ac: H2A 1-17 ([pS]G[Arg(Me2a)]GK(Ac)QGGKARAKAKTR; UniProt P0C0S8 2-18, looked up, fragment)    0.5991
H2A.Z (1-19) (N-ac): H2AZ 1-19 (Ac-AGGKAGKDSGKAKTKAVSR; UniProt P0C0S5 2-20, looked up, fragment)    0.4986
H2A.Z K4ac + K8ac + K12ac (1-19) (N-ac): H2AZ 1-19 (Ac-AGGKAGKDSGKAKTKAVSR; not fully specified (residue 4); UniProt P0C0S5 2-20, looked up, fragment)    0.5933

* * *

system: PHF2; test: Histone peptide microarray; type: binding, human; settings: PHF2, GST-tagged; arrays performed twice, n of 4
Where no end group is shown, it is not given here.
Quantity name: Array Heatmap value (peptide array binding signal)

H2A.Z (1-19): H2AZ 1-19 (AGGKAGKDSGKAKTKAVSR; UniProt P0C0S5 2-20, looked up, fragment)    0.6568
H2A.Z (1-19) (N-ac): H2AZ 1-19 (Ac-AGGKAGKDSGKAKTKAVSR; UniProt P0C0S5 2-20, looked up, fragment)    0.4703
Myc-Tag: 1-10 (ILKKATAYIL; Myc epitope tag; UniProt P01106 410-419, looked up, fragment)    0.5897
H2A.Z K4ac + K8ac + K12ac (1-19) (N-ac): H2AZ 1-19 (Ac-AGGKAGKDSGKAKTKAVSR; not fully specified (residue 4); UniProt P0C0S5 2-20, looked up, fragment)    0.5309
H2AX (132-142): H2AX 132-142 (GKKATQASQEY; UniProt P16104 133-143, looked up, fragment)    0.5225
H4K12ac + KQ5,8,16,20: H4 1-23 (SGRGQGGQGLGK(Ac)GGAQRHRQVLR; UniProt P62805 2-24, looked up, variant K5Q K8Q K16Q K20Q)    0.578

* * *

tested on: BAZ2B; assay: Histone peptide microarray; type: binding, human; conditions: BAZ2B, GST-tagged; arrays performed twice, n of 4
Where no end group is shown, it is not given here. [ ]: non-standard residue; d: D form. Arg(Me2a) = CN(C)C(=N)NCCC[C@H](N)C(=O)O; pS = N[C@@H](COP(=O)(O)O)C(=O)O
Quantity name: Array Heatmap value (peptide array binding signal)

H2AX (S139p): H2AX 132-142 (GKKATQA[pS]QEY; UniProt P16104 133-143, looked up, fragment)    0.5073
H2AX (132-142): H2AX 132-142 (GKKATQASQEY; UniProt P16104 133-143, looked up, fragment)    0.4423
H2AR3me2a + K5ac: H2A 1-17 (SG[Arg(Me2a)]GK(Ac)QGGKARAKAKTR; UniProt P0C0S8 2-18, looked up, fragment)    0.4585

* * *

system: SP140L; assay: Histone peptide microarray; type: binding, human; details: SP140L, GST-tagged; arrays performed twice, n of 4
Where no end group is shown, it is not given here.
Quantity name: Array Heatmap value (peptide array binding signal)

Myc-Tag: 1-10 (ILKKATAYIL; Myc epitope tag; UniProt P01106 410-419, looked up, fragment)    0.3664
H2A.Z (1-19): H2AZ 1-19 (AGGKAGKDSGKAKTKAVSR; UniProt P0C0S5 2-20, looked up, fragment)    0.3948
H2A.Z (1-19) (N-ac): H2AZ 1-19 (Ac-AGGKAGKDSGKAKTKAVSR; UniProt P0C0S5 2-20, looked up, fragment)    0.3411
H2AX (132-142): H2AX 132-142 (GKKATQASQEY; UniProt P16104 133-143, looked up, fragment)    0.3692

* * *

system: AIRE (PP); experiment: Histone peptide microarray; type: binding, human; details: AIRE (PP), GST-tagged; arrays performed twice, n of 4
Where no end group is shown, it is not given here. [ ]: non-standard residue; d: D form. Arg(Me2a) = CN(C)C(=N)NCCC[C@H](N)C(=O)O; pS = N[C@@H](COP(=O)(O)O)C(=O)O
Quantity name: Array Heatmap value (peptide array binding signal)

Solved entries:
H4K12ac + KQ5,8,16,20: H4 1-23 (SGRGQGGQGLGK(Ac)GGAQRHRQVLR; UniProt P62805 2-24, looked up, variant K5Q K8Q K16Q K20Q)    0.4232
H2AX (S139p): H2AX 132-142 (GKKATQA[pS]QEY; UniProt P16104 133-143, looked up, fragment)    0.5219
H2A.Z (1-19): H2AZ 1-19 (AGGKAGKDSGKAKTKAVSR; UniProt P0C0S5 2-20, looked up, fragment)    0.4876
H2AS1p + R3me2a + K5ac: H2A 1-17 ([pS]G[Arg(Me2a)]GK(Ac)QGGKARAKAKTR; UniProt P0C0S8 2-18, looked up, fragment)    0.4865
H2AR3me2a + K5ac: H2A 1-17 (SG[Arg(Me2a)]GK(Ac)QGGKARAKAKTR; UniProt P0C0S8 2-18, looked up, fragment)    0.4061

(P) H2AS1p + K5ac: H2A 1-17 ([pS]GRGK(Ac)QGGKARAKAKTR; UniProt P0C0S8 2-18, looked up, fragment)
(Q) H2A.Z K4ac + K8ac + K12ac (1-19) (N-ac): H2AZ 1-19 (Ac-AGGKAGKDSGKAKTKAVSR; not fully specified (residue 4); UniProt P0C0S5 2-20, looked up, fragment)
Asked: Returns the identifier with the smallest measured Array Heatmap value (peptide array binding signal) among P and Q . API: response body contains the label of the selected item.
Given back: P
(P: 0.2932, Q: 0.5817)
